# Average EC50, pSTAT5 Assay (T cells) per record follows
Molecular target: T1, IL-2 receptor βγ complex (human, UniProt P14784 27-551; P31785 23-369)
T1 sequence (looked up) 1: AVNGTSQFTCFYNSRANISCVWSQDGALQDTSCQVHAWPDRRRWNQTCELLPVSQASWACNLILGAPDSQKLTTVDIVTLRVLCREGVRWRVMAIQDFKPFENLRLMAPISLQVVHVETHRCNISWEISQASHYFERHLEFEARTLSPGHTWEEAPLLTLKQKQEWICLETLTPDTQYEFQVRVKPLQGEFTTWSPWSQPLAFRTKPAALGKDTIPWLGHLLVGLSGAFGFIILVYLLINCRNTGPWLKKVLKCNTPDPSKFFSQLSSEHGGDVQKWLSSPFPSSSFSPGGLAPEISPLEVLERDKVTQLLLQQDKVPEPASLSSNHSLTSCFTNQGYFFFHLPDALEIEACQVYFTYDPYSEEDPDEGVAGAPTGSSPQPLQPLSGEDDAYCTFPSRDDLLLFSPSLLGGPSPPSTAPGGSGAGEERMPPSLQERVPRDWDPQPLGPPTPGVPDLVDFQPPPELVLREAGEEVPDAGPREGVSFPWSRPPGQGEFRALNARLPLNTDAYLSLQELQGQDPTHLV
T1 sequence (looked up) 2: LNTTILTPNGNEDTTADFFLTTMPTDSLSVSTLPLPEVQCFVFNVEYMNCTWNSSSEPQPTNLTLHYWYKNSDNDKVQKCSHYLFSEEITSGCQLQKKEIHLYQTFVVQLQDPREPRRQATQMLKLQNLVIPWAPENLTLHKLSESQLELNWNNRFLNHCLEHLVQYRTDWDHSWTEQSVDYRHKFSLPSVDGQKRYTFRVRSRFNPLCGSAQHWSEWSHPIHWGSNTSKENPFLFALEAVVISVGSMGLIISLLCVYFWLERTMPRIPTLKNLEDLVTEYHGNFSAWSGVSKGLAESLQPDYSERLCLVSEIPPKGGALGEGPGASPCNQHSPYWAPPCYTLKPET
Assay: cell-based or functional assay
Bridges are numbered along the chain shown (N, C = ends). Primed or numbered codes have the meaning given here. [ ]: non-standard residue; d: D form. Ygp(4) = Tyr with amino-capped PEG8 (O-(8x polyethylene glycol-amino)-tyrosine); Yn3(4) = Tyr with azide-capped PEG9 (O-(9x polyethylene glycol-azido)-tyrosine); Ygp = O-(8x polyethylene glycol-amino)-tyrosine (Tyr, amino-capped PEG8); Yn3 = O-(9x polyethylene glycol-azido)-tyrosine (Tyr, azide-capped PEG9); Ygp″ = O-(8x polyethylene glycol-amino)-tyrosine; Yn3″ = O-(9x polyethylene glycol-azido)-tyrosine; hSer = N[C@@H](CCO)C(=O)O; Nle = CCCC[C@H](N)C(=O)O
Just the number in nM, nothing appended.

CMP-155, MMP2 cleaved molecule (ligand, not fully specified; also: cleaved by MMP2, cleavage product not defined, N-terminal PEG9 link and Glu29 side-chain attachment of the cleavable peptide not defined) APTSSSTKKTQLQLEHLLLDLQ[Nle]ILNGIENYKNPKLTR[Nle]L[hSer][Yn3″]KF[Ygp″][Nle]PKKATELKHLQCLEEELKPLEEVL[hSer]LAQSKNFHLRPRDLISNINVIVLELKGSETTF[hSer]CEYADETATIVEFLNRWITFSQSIISTLT : 2.9

Note Average EC50, pSTAT5 Assay (T cells) for the binder shown: CMP-138, MMP2 cleaved molecule (ligand, ends and bridges not checked; also: cleaved by MMP2, cleavage product not defined, N-terminal PEG4 link and Glu29 side-chain attachment of the cleavable peptide not defined) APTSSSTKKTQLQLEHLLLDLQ[Nle]ILNGIENYKNPKLTR[Nle]L[hSer][Yn3]KF[Ygp][Nle]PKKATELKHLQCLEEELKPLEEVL[hSer]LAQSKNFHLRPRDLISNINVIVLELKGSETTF[hSer]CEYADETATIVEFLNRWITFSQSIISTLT
2.32

Please give measured Average EC50, pSTAT5 Assay (T cells) of the following entry: CMP-151, MMP2 cleaved molecule (ligand, not fully specified; also: cleaved by MMP2, cleavage product not defined, N-terminal glutaryl-PEG9 link and Lys23 side-chain attachment not defined) APTSSSTKKTQLQLEHLLLDLQKILNGINNYKNPKLTR[Nle]L[hSer][Yn3″]KF[Ygp″][Nle]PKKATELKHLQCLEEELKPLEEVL[hSer]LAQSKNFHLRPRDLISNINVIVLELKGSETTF[hSer]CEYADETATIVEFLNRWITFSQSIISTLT
1.81

Entry CMP-159 (ligand, bridge N-28; not fully specified (N-terminus, bridges); ends not checked) PLGLAGAPTSSSTKKTQLQLEHLLLDLE[Nle]ILNGINNYKNPKLTR[Nle]L[hSer][Yn3(4)]KF[Ygp(4)][Nle]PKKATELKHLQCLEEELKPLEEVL[hSer]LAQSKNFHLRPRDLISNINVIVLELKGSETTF[hSer]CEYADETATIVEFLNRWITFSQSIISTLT needs its Average EC50, pSTAT5 Assay (T cells) filled in; supply it.
35.5

Answer with reported Average EC50, pSTAT5 Assay (T cells) of CMP-139, MMP2 cleaved molecule (ligand, ends and bridges not checked; also: cleaved by MMP2, cleavage product not defined, N-terminal PEG16 link and Glu29 side-chain attachment of the cleavable peptide not defined) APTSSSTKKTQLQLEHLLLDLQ[Nle]ILNGIENYKNPKLTR[Nle]L[hSer][Yn3]KF[Ygp][Nle]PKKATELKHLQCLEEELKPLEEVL[hSer]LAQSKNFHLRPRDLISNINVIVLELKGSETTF[hSer]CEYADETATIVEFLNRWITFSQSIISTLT
3.61

Supply reported Average EC50, pSTAT5 Assay (T cells) belonging to this binder: CMP-162 (ligand, ends and bridges not checked; also: further groups not given here) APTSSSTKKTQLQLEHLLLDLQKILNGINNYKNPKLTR[Nle]L[hSer][Yn3(4)]KF[Ygp(4)][Nle]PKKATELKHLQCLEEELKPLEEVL[hSer]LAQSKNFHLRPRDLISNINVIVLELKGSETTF[hSer]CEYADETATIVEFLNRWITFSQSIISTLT
2.79

Identify Average EC50, pSTAT5 Assay (T cells) associated with the binder CMP-158, MMP2 cleaved molecule (ligand, not fully specified; ends and bridges not checked; also: MMP2 cleaved, cleavage site and linker fragments on N-terminus and Glu22 side chain not given here) APTSSSTKKTQLQLEHLLLDLE[Nle]ILNGINNYKNPKLTR[Nle]L[hSer][Yn3(4)]KF[Ygp(4)][Nle]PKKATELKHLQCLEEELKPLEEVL[hSer]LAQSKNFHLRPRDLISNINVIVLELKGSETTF[hSer]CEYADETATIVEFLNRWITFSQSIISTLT
1.95

Tell me measured Average EC50, pSTAT5 Assay (T cells) for CMP-161 (ligand, bridge N-32; not fully specified (N-terminus, bridges); ends not checked) PLGLAGAPTSSSTKKTQLQLEHLLLDLQ[Nle]ILEGINNYKNPKLTR[Nle]L[hSer][Yn3(4)]KF[Ygp(4)][Nle]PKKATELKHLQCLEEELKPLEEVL[hSer]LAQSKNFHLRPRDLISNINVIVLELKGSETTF[hSer]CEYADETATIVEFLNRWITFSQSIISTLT please.
29.4
